# study_target: T1, human α-CGRP (Homo sapiens, UniProt P06881)
# T1 construct: 1-37 (WT); purchased; host or cells: synthetic peptide
# T1 sequence (P06881 83-119 limits assumed): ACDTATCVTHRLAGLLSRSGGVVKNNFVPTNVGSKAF
# test: Biacore affinity of antibody G1 Fab and variants to human α-CGRP
# Type: binding
# run_conditions: 37° C., Fab, screening mode unless underlined
recorded_endpoint: α-human koff (s⁻¹)
The answer is to be given in s⁻¹; state only the numeric part.

Worked cases, answers included:
molecule	α-human koff (s⁻¹)
M60: G1 variant: L1 R28N,T30D; L2 L56S; H2 E54K,A57N,S58R,H61F; HC-FW3 L99T,A100V (antibody, V domains shown) VH: EVQLVESGGGLVQPGGSLRLSCAASGFTFSNYWISWVRQAPGKGLEWVAEIRSKSDNRATFYAEAVKGRFTISRDNAKNSLYLQMNSLRAEDTAVYYCTVYFDYGLAIQNYWGQGTLVTVSS VL: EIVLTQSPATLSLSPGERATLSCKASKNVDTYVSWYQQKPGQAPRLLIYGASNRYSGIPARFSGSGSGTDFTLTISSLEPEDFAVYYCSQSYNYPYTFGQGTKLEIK	0.000911
M46: G1 variant: L1 R28N; L2 G50A,L56T; H2 E54K,A57N,S58E,H61F; HC-FW3 L99T,A100V (antibody, V domains shown) VH: EVQLVESGGGLVQPGGSLRLSCAASGFTFSNYWISWVRQAPGKGLEWVAEIRSKSDNEATFYAEAVKGRFTISRDNAKNSLYLQMNSLRAEDTAVYYCTVYFDYGLAIQNYWGQGTLVTVSS VL: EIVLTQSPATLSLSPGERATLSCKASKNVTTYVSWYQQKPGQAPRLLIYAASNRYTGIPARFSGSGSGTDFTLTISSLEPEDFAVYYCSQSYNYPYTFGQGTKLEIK	0.000539
M72: G1 variant: L1 R28N,T30G; L2 L56S; H2 E54K; HC-FW3 L99T,A100V (antibody, V domains shown) VH: EVQLVESGGGLVQPGGSLRLSCAASGFTFSNYWISWVRQAPGKGLEWVAEIRSKSDASATHYAEAVKGRFTISRDNAKNSLYLQMNSLRAEDTAVYYCTVYFDYGLAIQNYWGQGTLVTVSS VL: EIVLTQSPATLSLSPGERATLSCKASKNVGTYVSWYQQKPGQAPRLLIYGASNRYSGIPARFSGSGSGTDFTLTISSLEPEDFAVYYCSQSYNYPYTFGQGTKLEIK	0.0004

Next, consider the following molecule.
Per the records, this molecule ( M27: G1 variant: L1 R28N,T30A; HC-FW3 L99T,A100V (antibody, V domains shown) VH: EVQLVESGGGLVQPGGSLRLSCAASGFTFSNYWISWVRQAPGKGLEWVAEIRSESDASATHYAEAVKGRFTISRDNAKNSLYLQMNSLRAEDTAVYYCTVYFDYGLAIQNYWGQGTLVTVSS VL: EIVLTQSPATLSLSPGERATLSCKASKNVATYVSWYQQKPGQAPRLLIYGASNRYLGIPARFSGSGSGTDFTLTISSLEPEDFAVYYCSQSYNYPYTFGQGTKLEIK ) has α-human koff equal to 0.000357
